- METHOD_NOTES: in vitro
- MEASUREMENT_PARAMETERS: human
Bridge positions count the residues as written; N and C are the ends. Square brackets hold non-standard residues; d marks the D form. Peptide text beside a SMILES is read from it. Cit = NC(=O)NCCC[C@H](N)C(=O)O; Dab = NCC[C@H](N)C(=O)O
PARAMETER: GI50 at 48 h

* N=C(N)NCCC[C@@H]1NC(=O)[C@@H]2CSSC[C@H](NC(=O)[C@H](Cc3c[nH]c4ccccc34)NC(=O)[C@H](CCCNC(=N)N)NC(=O)[C@H](CCCNC(=N)N)NC(=O)[C@H]3CCCN3C(=O)CNC1=O)C(=O)N[C@@H](Cc1ccc(O)cc1)C(=O)N[C@@H](CCCNC(N)=O)C(=O)N[C@@H](CCCCN)C(=O)N1CCC[C@@H]1C(=O)N1CCC[C@H]1C(=O)N[C@@H](Cc1ccc(O)cc1)C(=O)N[C@@H](CCCCN)C(=O)N[C@@H](CCCNC(N)=O)C(=O)N2 [Ex. 106] (cyclo(YK[Cit]CRG[dP]RRWCY[Cit]K[dP]P); disulfide 4-11) | 83 µM
* C[C@@H](O)[C@@H]1NC(=O)[C@H](CCCNC(=N)N)NC(=O)[C@H](Cc2ccc(O)cc2)NC(=O)[C@@H]2CCCN2C(=O)[C@H]2CCCN2C(=O)[C@H](CCCCN)NC(=O)[C@H](CCC(N)=O)NC(=O)[C@H](Cc2ccc(O)cc2)NC(=O)[C@@H]2CSSC[C@H](NC1=O)C(=O)N[C@@H](CCCNC(=N)N)C(=O)NCC(=O)N1CCC[C@@H]1C(=O)N[C@@H](CCN)C(=O)N[C@@H](CCCNC(=N)N)C(=O)N[C@@H](Cc1c[nH]c3ccccc13)C(=O)N2 [Ex. 110] (cyclo(YRTCRG[dP][Dab]RWCYQK[dP]P); disulfide 4-11) | 48 µM

---

- METHOD_NOTES: Pharmacokinetic study (PK) after single i.v. and i.p. administration
- Assay type: in vivo, male CD-1 mice
- MEASUREMENT_PARAMETERS: male, CD-1, mouse, in vivo, ip, 10 mg/kg
PARAMETER: level at 4 h (ng/mL)

• N=C(N)NCCC[C@@H]1NC(=O)[C@@H]2CSSC[C@H](NC(=O)[C@H](Cc3ccc4ccccc4c3)NC(=O)[C@H](CCCNC(=N)N)NC(=O)[C@H](CCCNC(=N)N)NC(=O)[C@H]3CCCN3C(=O)CNC1=O)C(=O)N[C@@H](Cc1ccc(O)cc1)C(=O)N[C@@H](CCCNC(N)=O)C(=O)N[C@@H](CCCCN)C(=O)N1CCC[C@@H]1C(=O)N1CCC[C@H]1C(=O)N[C@@H](Cc1ccc(O)cc1)C(=O)N[C@@H](CCCNC(=N)N)C(=O)N[C@@H](CCCNC(N)=O)C(=O)N2 [Ex. 51] = 1020

---

- METHOD_NOTES: Pharmacokinetic study (PK) after single i.v. and i.p. administration
- Assay type: in vivo, male CD-1 mice
- MEASUREMENT_PARAMETERS: male, CD-1, mouse, in vivo, iv, 2 mg/kg
PARAMETER: level at 0.25 h

• N=C(N)NCCC[C@@H]1NC(=O)[C@@H]2CSSC[C@H](NC(=O)[C@H](Cc3ccc4ccccc4c3)NC(=O)[C@H](CCCNC(=N)N)NC(=O)[C@H](CCCNC(=N)N)NC(=O)[C@H]3CCCN3C(=O)CNC1=O)C(=O)N[C@@H](Cc1ccc(O)cc1)C(=O)N[C@@H](CCCNC(N)=O)C(=O)N[C@@H](CCCCN)C(=O)N1CCC[C@@H]1C(=O)N1CCC[C@H]1C(=O)N[C@@H](Cc1ccc(O)cc1)C(=O)N[C@@H](CCCNC(=N)N)C(=O)N[C@@H](CCCNC(N)=O)C(=O)N2 [Ex. 51] = 328 ng/mL

---

- METHOD_NOTES: in vitro
- Type: in vitro ADME
- MEASUREMENT_PARAMETERS: rat, plasma
Bridge positions count the residues as written; N and C are the ends. Square brackets hold non-standard residues; d marks the D form. Peptide text beside a SMILES is read from it. 2Nal = N[C@@H](Cc1ccc2ccccc2c1)C(=O)O; Cit = NC(=O)NCCC[C@H](N)C(=O)O
Quick reference for half-life at 10 μM among some molecules
PARAMETER: half-life at 10 μM

• N=C(N)NCCC[C@@H]1NC(=O)[C@H](CO)NC(=O)[C@H](CCCNC(N)=O)NC(=O)[C@H](CCCNC(=N)N)NC(=O)[C@H](Cc2ccc(O)cc2)NC(=O)[C@@H]2CCCN2C(=O)[C@H]2CCCN2C(=O)[C@H](CCCCN)NC(=O)[C@H](CCCNC(N)=O)NC(=O)[C@H](Cc2ccc(O)cc2)NC(=O)[C@H](CC(N)=O)NC(=O)[C@H](Cc2c[nH]c3ccccc23)NC(=O)[C@H](CCCNC(=N)N)NC(=O)[C@H](CCCNC(=N)N)NC(=O)[C@H]2CCCN2C(=O)CNC1=O [Ex. 151] (cyclo(YR[Cit]SRG[dP]RRWNY[Cit]K[dP]P)) = 1.18 h
• N=C(N)NCCC[C@@H]1NC(=O)[C@@H]2CSSC[C@H](NC(=O)[C@H](Cc3ccc4ccccc4c3)NC(=O)[C@H](CCCNC(=N)N)NC(=O)[C@H](CCCNC(=N)N)NC(=O)[C@H]3CCCN3C(=O)CNC1=O)C(=O)N[C@@H](Cc1ccc(O)cc1)C(=O)N[C@@H](CCC(N)=O)C(=O)N[C@@H](CCCCN)C(=O)N1CCC[C@@H]1C(=O)N1CCC[C@H]1C(=O)N[C@@H](CCC(=O)O)C(=O)N[C@@H](CCCNC(=N)N)C(=O)N[C@@H](CCCNC(N)=O)C(=O)N2 [Ex. 68] (cyclo(ER[Cit]CRG[dP]RR[2Nal]CYQK[dP]P); disulfide 4-11) = 1.35 h

---

- System: human red blood cells (hRBC)
- METHOD_NOTES: Hemolysis
- Assay type: cell-based
Bridge positions count the residues as written; N and C are the ends. Square brackets hold non-standard residues; d marks the D form. Peptide text beside a SMILES is read from it. 2Nal = N[C@@H](Cc1ccc2ccccc2c1)C(=O)O; Cit = NC(=O)NCCC[C@H](N)C(=O)O; Dab = NCC[C@H](N)C(=O)O
Quick reference for Hemolysis at 100 μM among some compounds
PARAMETER: Hemolysis at 100 μM (%)

- C[C@@H](O)[C@@H]1NC(=O)[C@H](CCCNC(=N)N)NC(=O)[C@H](Cc2ccc(O)cc2)NC(=O)[C@@H]2CCCN2C(=O)[C@H]2CCCN2C(=O)[C@H](CCCCN)NC(=O)[C@H](CCC(N)=O)NC(=O)[C@H](Cc2ccc(O)cc2)NC(=O)[C@@H]2CSSC[C@H](NC1=O)C(=O)N[C@@H](CCCNC(=N)N)C(=O)NCC(=O)N1CCC[C@@H]1C(=O)N[C@@H](CCN)C(=O)N[C@@H](CCCNC(=N)N)C(=O)N[C@@H](Cc1ccc3ccccc3c1)C(=O)N2 [Ex. 104] (cyclo(YRTCRG[dP][Dab]R[2Nal]CYQK[dP]P); disulfide 4-11): 0
- N=C(N)NCCC[C@@H]1NC(=O)[C@@H]2CSSC[C@H](NC(=O)[C@H](Cc3c[nH]c4ccccc34)NC(=O)[C@H](CCCNC(=N)N)NC(=O)[C@H](CCCNC(=N)N)NC(=O)[C@H]3CCCN3C(=O)CNC1=O)C(=O)N[C@@H](Cc1ccc(O)cc1)C(=O)N[C@@H](CCC(N)=O)C(=O)N[C@@H](CCCCN)C(=O)N1CCC[C@@H]1C(=O)N1CCC[C@H]1C(=O)N[C@@H](Cc1ccc(O)cc1)C(=O)N[C@@H](CCCNC(=N)N)C(=O)N[C@@H](CCCNC(N)=O)C(=O)N2 [Ex. 108] (cyclo(YR[Cit]CRG[dP]RRWCYQK[dP]P); disulfide 4-11): 0
- N=C(N)NCCC[C@@H]1NC(=O)[C@@H]2CSSC[C@H](NC(=O)[C@H](Cc3ccc4ccccc4c3)NC(=O)[C@H](CCCNC(=N)N)NC(=O)[C@H](CCCNC(=N)N)NC(=O)[C@H]3CCCN3C(=O)CNC1=O)C(=O)N[C@@H](Cc1ccc(O)cc1)C(=O)N[C@@H](CCC(N)=O)C(=O)N[C@@H](CO)C(=O)N1CCC[C@@H]1C(=O)N1CCC[C@H]1C(=O)N[C@@H](Cc1ccc(O)cc1)C(=O)N[C@@H](CCCNC(=N)N)C(=O)N[C@@H](CCCNC(N)=O)C(=O)N2 [Ex. 87] (cyclo(YR[Cit]CRG[dP]RR[2Nal]CYQS[dP]P); disulfide 4-11): 0
- N=C(N)NCCC[C@@H]1NC(=O)[C@@H]2CSSC[C@H](NC(=O)[C@H](Cc3ccc4ccccc4c3)NC(=O)[C@H](CCCNC(=N)N)NC(=O)[C@H](CCCNC(=N)N)NC(=O)[C@H]3CCCN3C(=O)CNC1=O)C(=O)N[C@@H](Cc1ccc(O)cc1)C(=O)N[C@@H](Cc1ccc(O)cc1)C(=O)N[C@@H](CCCCN)C(=O)N1CCC[C@@H]1C(=O)N1CCC[C@H]1C(=O)N[C@@H](Cc1ccc(O)cc1)C(=O)N[C@@H](CCCNC(=N)N)C(=O)N[C@@H](CCCNC(N)=O)C(=O)N2 [Ex. 59] (cyclo(YR[Cit]CRG[dP]RR[2Nal]CYYK[dP]P); disulfide 4-11): 0.1
- CC[C@H](C)[C@@H]1NC(=O)[C@H](CCCNC(=N)N)NC(=O)[C@H](Cc2ccc(O)cc2)NC(=O)[C@@H]2CCCN2C(=O)[C@H]2CCCN2C(=O)[C@H](CCCCN)NC(=O)[C@H](CCC(N)=O)NC(=O)[C@H](Cc2ccc(O)cc2)NC(=O)[C@@H]2CSSC[C@H](NC1=O)C(=O)N[C@@H](CCCNC(=N)N)C(=O)NCC(=O)N1CCC[C@@H]1C(=O)N[C@@H](CCCNC(=N)N)C(=O)N[C@@H](CCCNC(=N)N)C(=O)N[C@@H](Cc1ccc3ccccc3c1)C(=O)N2 [Ex. 71] (cyclo(YRICRG[dP]RR[2Nal]CYQK[dP]P); disulfide 4-11): 0.1
- N=C(N)NCCC[C@@H]1NC(=O)[C@@H]2CSSC[C@H](NC(=O)[C@H](Cc3ccc4ccccc4c3)NC(=O)[C@H](CCCNC(=N)N)NC(=O)[C@H](CCCNC(=N)N)NC(=O)[C@H]3CCCN3C(=O)CNC1=O)C(=O)N[C@@H](Cc1ccc(O)cc1)C(=O)N[C@@H](CCCNC(=N)N)C(=O)N[C@@H](CCCCN)C(=O)N1CCC[C@@H]1C(=O)N1CCC[C@H]1C(=O)N[C@@H](Cc1ccc(O)cc1)C(=O)N[C@@H](CCCNC(=N)N)C(=O)N[C@@H](CCCNC(N)=O)C(=O)N2 [compound 57] (cyclo(YR[Cit]CRG[dP]RR[2Nal]CYRK[dP]P); disulfide 4-11): 0.1
- N=C(N)NCCC[C@@H]1NC(=O)[C@@H]2CSSC[C@H](NC(=O)[C@H](Cc3c[nH]c4ccccc34)NC(=O)[C@H](CCCNC(=N)N)NC(=O)[C@H](CCCNC(=N)N)NC(=O)[C@H]3CCCN3C(=O)CNC1=O)C(=O)N[C@@H](Cc1ccc(O)cc1)C(=O)N[C@@H](CCCNC(N)=O)C(=O)N[C@@H](CC(=O)O)C(=O)N1CCC[C@@H]1C(=O)N1CCC[C@H]1C(=O)N[C@@H](Cc1ccc(O)cc1)C(=O)N[C@@H](CCCNC(=N)N)C(=O)N[C@@H](CO)C(=O)N2 [Ex. 102] (cyclo(YRSCRG[dP]RRWCY[Cit]D[dP]P); disulfide 4-11): 0.5
- N=C(N)NCCC[C@@H]1NC(=O)CNC(=O)[C@@H]2CCCN2C(=O)[C@H]2CCCN2C(=O)[C@H](CCCCN)NC(=O)[C@H](CCCNC(N)=O)NC(=O)[C@H](Cc2ccc(O)cc2)NC(=O)[C@@H]2CSSC[C@H](NC(=O)[C@H](CCCNC(N)=O)NC1=O)C(=O)N[C@@H](CCCNC(=N)N)C(=O)NCC(=O)N1CCC[C@@H]1C(=O)N[C@@H](CCCNC(=N)N)C(=O)N[C@@H](CCCNC(=N)N)C(=O)N[C@@H](Cc1ccc3ccccc3c1)C(=O)N2 [Ex. 114] (cyclo(GR[Cit]CRG[dP]RR[2Nal]CY[Cit]K[dP]P); disulfide 4-11): 0
- N=C(N)NCCC[C@@H]1NC(=O)[C@@H]2CSSC[C@H](NC(=O)[C@H](Cc3ccc4ccccc4c3)NC(=O)[C@H](CCCNC(=N)N)NC(=O)[C@H](CCCNC(=N)N)NC(=O)[C@H]3CCCN3C(=O)CNC1=O)C(=O)N[C@@H](Cc1ccc(O)cc1)C(=O)N[C@@H](CO)C(=O)N[C@@H](CCCCN)C(=O)N1CCC[C@@H]1C(=O)N1CCC[C@H]1C(=O)N[C@@H](Cc1ccc(O)cc1)C(=O)N[C@@H](CCCNC(=N)N)C(=O)N[C@@H](CCCNC(N)=O)C(=O)N2 [Ex. 81] (cyclo(YR[Cit]CRG[dP]RR[2Nal]CYSK[dP]P); disulfide 4-11): 0

Where these numbers come from: patent US8895695B2
